The reported numbers originate from ChEMBL document CHEMBL2021856.

Each entry below lists one item and its recorded Emax value.
- Measured Target: 5-hydroxytryptamine receptor 2C (Homo sapiens)
- Protocol Text: Agonist activity at human 5HT2C receptor expressed in HEK293 cells assessed as calcium flux measured every sec for 3 mins by FLIPR assay relative to 5HT
- Type: functional, cell-based

Molecule: COc1ccc(-c2cccc(C)c2)cc1[C@H]1C[C@@H]1CN.Cl (racemic)
Emax [%]: 69
//
Molecule: CC(C)COc1ccccc1[C@H]1C[C@@H]1CN.Cl (racemic)
Emax [%]: 84
//
Molecule: NC[C@H]1C[C@@H]1c1ccccc1OCC1CC1
Emax [%]: 61
//
Molecule: NC[C@H]1C[C@@H]1c1ccccc1OCC1CC1 (racemic)
Emax [%]: 60
//
Molecule: COc1ccc(-c2ccc(F)cc2)cc1[C@H]1C[C@@H]1CN.Cl (racemic)
Emax [%]: 83
//
Molecule: COc1ccc(-c2cccc(F)c2)cc1[C@H]1C[C@@H]1CN.Cl (racemic)
Emax [%]: 59
//
Molecule: CCOc1ccccc1[C@H]1C[C@@H]1CN (racemic)
Emax [%]: 99
//
Molecule: Cl.NC[C@@H]1C[C@H]1c1ccccc1OCC1CC1
Emax [%]: 51
//
Molecule: Cl.NC[C@H]1C[C@@H]1c1ccccc1OCc1ccccc1 (racemic)
Emax [%]: 74
//
Molecule: COc1ccc(-c2ccccc2F)cc1[C@H]1C[C@@H]1CN.Cl (racemic)
Emax [%]: 69
//
Molecule: COc1ccc(-c2ccccc2)cc1[C@H]1C[C@@H]1CN.Cl (racemic)
Emax [%]: 64
//
Molecule: COc1ccc(-c2ccccc2C)cc1[C@H]1C[C@@H]1CN.Cl (racemic)
Emax [%]: 67
//
Molecule: Cl.NC[C@H]1C[C@@H]1c1ccccc1OCC1CCC1 (racemic)
Emax [%]: 31
//
Molecule: CCCOc1ccccc1[C@H]1C[C@@H]1CN.Cl (racemic)
Emax [%]: 70
